Cited source for all entries: patent US7265103B2

Biological target: hα2A receptor (Homo sapiens)
Construct: expressed in transfected cells; host or cells: CHO cells
Sequence (P08913 whole entry): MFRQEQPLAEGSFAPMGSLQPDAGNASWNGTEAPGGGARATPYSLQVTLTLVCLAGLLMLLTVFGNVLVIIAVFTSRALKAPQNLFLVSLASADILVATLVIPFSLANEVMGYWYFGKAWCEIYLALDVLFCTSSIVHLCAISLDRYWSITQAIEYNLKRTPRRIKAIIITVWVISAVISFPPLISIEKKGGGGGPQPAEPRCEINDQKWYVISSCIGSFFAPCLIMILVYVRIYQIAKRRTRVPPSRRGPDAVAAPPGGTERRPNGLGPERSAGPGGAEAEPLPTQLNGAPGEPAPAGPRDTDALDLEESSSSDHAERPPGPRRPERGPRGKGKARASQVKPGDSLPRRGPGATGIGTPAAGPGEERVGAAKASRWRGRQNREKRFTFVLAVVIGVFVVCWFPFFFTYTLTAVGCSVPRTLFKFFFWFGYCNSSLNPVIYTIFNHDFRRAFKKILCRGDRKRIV
Assay: Radioligand binding experiment for α2A-adrenergic receptor ([3H]-raulwolscine)
Details: CHO cell membranes with human α2A receptor, [3H]raulwolscine 1 nM; read-out: pIC50 α2A (converted)
READOUT: IC50 (nM)
Could you give me the number in nM? Just the number is fine.

Illustrative cases are given below, each with its answer.
| MOLECULE | TEST SYSTEM | UNIT ANNOTATION | IC50 |
| --- | --- | --- | --- |
| CCCCCNc1ccc2c(c1)OCC1C2=NOC1CN1CCN(CC(C)=Cc2ccc(F)cc2)CC1 (stereo not drawn) | hα2A receptor (Homo sapiens) | nM | 126 |
| COc1cc2c(cc1NCC1CC1C)OCC1C2=NOC1CN1CCN(CC(C)=Cc2ccc(F)cc2)CC1 (stereo not drawn) | hα2A receptor (Homo sapiens) | nM | 63.1 |
| COc1cc2c(cc1N(C)CCO)OCC1C2=NOC1CN1CCN(CC(C)=Cc2cccc(F)c2)CC1 (stereo not drawn) | hα2A receptor (Homo sapiens) | nM | 20 |
| CC(=Cc1ccccc1)CN1CCN(CC2ON=C3c4ccc(Nc5cccc(C#N)c5)cc4OCC32)CC1 (stereo not drawn) | hα2A receptor (Homo sapiens) | nM | 15.8 |
| CC(=Cc1cccc(F)c1)CN1CCN(CC2ON=C3c4ccc(N(C)CCN(C)C)cc4OCC32)CC1 (stereo not drawn) | hα2A receptor (Homo sapiens) | nM | 1.58 |
| CC(=Cc1ccc(F)cc1)CN1CCN(CC2ON=C3c4ccc(N5CCOCC5)cc4OCC32)CC1 (stereo not drawn) | hα2A receptor (Homo sapiens) | nM | 6.31 |

Input CC(=Cc1ccc(F)cc1)CN1CCN(CC2ON=C3c4ccc(N(C)CCNC(C)C(C)C)cc4OCC32)CC1 (stereo not drawn) . Output IC50: 39.8

Input CC(=Cc1ccccc1)CN1CCN(CC2ON=C3c4ccc(N(C)CCO)cc4OCC32)CC1 (single isomer, unassigned) [Compound 34] . Output IC50: 2

---

READOUT: melting point

| COMPOUND | melting point |
| --- | --- |
| CC(=Cc1ccccc1)CN1CCN(CC2ON=C3c4ccc(Nc5ccc(F)cc5)cc4OCC32)CC1 (stereo not shown) | 130.8 to 134.1 °C |
| CC(=Cc1ccc(F)cc1)CN1CCN(CC2ON=C3c4ccc(N5CCN(c6ccccc6)CC5)cc4OCC32)CC1 (stereo not shown) | 203.5 to 206.2 °C |

Input CC(=Cc1ccc(F)cc1)CN1CCN(CC2ON=C3c4ccc(N5CCN(C)CC5)cc4OCC32)CC1 (stereo not shown) . Output melting point: 147.3 to 150.6 °C

Input CC(=Cc1ccccc1)CN1CCN(CC2ON=C3c4ccc(NC(=O)C(C)(C)C)cc4OCC32)CC1 (stereo not shown) . Output melting point: 183.4 to 190.2 °C

Input C=CC(=O)Nc1ccc2c(c1)OCC1C2=NOC1CN1CCN(CC(C)=Cc2ccccc2)CC1 (stereo not shown) . Output melting point: 136.1 to 172.9 °C

Input C/C(=C\c1ccccc1)CN1CCN(CC2ON=C3c4ccc(N)cc4OCC32)CC1 (stereo not shown) . Output melting point: 134.1 to 136.2 °C

Input COc1ccc(NC(=O)Nc2ccc3c(c2)OCC2C3=NOC2CN2CCN(C/C(C)=C/c3ccccc3)CC2)cc1OC (stereo not shown) . Output melting point: 202.2 to 207.1 °C
